- measuredOn: αvβ6 (Homo sapiens, UniProt P06756+P18564)
- Construct: expressed in transfected cells; host or cells: K562
- Sequence (P06756 31-889 limits assumed): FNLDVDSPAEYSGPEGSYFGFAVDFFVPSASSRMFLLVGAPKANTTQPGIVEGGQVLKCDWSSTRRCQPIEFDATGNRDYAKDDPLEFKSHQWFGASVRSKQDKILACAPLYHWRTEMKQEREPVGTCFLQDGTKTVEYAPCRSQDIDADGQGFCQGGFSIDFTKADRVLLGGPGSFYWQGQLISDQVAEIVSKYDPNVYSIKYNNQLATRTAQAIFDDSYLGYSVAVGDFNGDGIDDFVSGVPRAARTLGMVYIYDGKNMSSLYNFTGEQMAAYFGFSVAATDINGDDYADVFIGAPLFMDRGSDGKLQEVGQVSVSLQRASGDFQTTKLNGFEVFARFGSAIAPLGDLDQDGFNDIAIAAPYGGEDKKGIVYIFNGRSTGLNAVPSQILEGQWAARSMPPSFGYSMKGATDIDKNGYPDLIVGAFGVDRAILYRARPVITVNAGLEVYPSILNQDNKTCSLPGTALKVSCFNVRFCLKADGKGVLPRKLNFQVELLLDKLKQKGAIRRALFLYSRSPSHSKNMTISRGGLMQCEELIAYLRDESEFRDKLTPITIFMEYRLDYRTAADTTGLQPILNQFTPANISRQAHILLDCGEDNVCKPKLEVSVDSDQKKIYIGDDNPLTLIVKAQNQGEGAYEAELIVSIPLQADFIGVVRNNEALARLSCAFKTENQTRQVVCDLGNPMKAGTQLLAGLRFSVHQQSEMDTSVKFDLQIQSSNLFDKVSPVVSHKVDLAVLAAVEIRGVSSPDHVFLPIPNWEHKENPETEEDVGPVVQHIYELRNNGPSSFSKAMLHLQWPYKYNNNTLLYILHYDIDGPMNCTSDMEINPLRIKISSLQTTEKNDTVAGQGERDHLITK
- Sequence (P06756 891-1048 partner limits assumed): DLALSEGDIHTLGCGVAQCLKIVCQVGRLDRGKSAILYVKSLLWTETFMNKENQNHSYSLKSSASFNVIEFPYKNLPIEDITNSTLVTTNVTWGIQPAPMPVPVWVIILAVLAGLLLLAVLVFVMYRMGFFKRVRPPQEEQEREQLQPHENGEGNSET
- Sequence (P18564 22-788): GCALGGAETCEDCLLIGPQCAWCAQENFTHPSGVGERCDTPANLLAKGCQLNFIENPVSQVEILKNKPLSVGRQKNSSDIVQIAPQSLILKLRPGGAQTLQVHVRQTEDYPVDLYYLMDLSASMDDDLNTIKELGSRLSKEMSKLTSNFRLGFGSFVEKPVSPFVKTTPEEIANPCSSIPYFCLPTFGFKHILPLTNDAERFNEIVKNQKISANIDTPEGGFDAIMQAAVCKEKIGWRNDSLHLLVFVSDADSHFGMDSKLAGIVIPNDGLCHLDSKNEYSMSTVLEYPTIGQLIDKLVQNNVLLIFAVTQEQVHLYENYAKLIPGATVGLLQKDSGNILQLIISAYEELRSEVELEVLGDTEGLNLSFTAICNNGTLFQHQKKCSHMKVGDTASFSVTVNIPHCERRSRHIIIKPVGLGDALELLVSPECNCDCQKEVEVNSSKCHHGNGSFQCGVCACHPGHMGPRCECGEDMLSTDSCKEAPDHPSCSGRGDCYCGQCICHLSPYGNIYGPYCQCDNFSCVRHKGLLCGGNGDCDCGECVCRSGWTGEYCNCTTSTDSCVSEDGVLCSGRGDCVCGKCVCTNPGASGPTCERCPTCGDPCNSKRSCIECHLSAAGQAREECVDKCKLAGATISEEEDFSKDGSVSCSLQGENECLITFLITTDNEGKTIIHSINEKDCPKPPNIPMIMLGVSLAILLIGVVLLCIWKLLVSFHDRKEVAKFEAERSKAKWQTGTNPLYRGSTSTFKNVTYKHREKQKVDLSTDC
- assayName: Cell adhesion assay, K562-αvβ6 (LAP-b1)
- Assay type: cell-based
- conditionInfo: K562-αvβ6 cells, ligand LAP-b1, 2 mM MgCl2; mean; read-out: αvβ6 pIC50 (mean affinity, cell Adhesion Assay) (converted)
// NB: equality with 10 nM counts as class 0; only IC50 strictly below is class 1

(Q) Decide: IC50 of COCCOc1ccc(F)c(C(CC(=O)O)CN2CC[C@@](F)(CCc3ccc4c(n3)NCCC4)C2)c1 (stereo partly shown) strictly below 10 nM?
(A) class 0

(Q) Same lookup for `O=C(O)C[C@H](CN1CC[C@@](F)(CCc2ccc3c(n2)NCCC3)C1)c1cccc(OC[C@@H]2CCCO2)c1` , please.
(A) class 0

(Q) Same lookup for `CO[C@@H](C)COc1cccc([C@H](CC(=O)O)CN2CC[C@@](F)(CCc3ccc4c(n3)NCCC4)C2)c1` , please.
(A) class 0

(Q) Same lookup for `CO[C@H](C)COc1cccc([C@H](CC(=O)O)CN2CC[C@@](F)(CCc3ccc4c(n3)NCCC4)C2)c1` , please.
(A) class 0

(Q) Same lookup for `O=C(O)C[C@H](CN1CC[C@@](F)(CCc2ccc3c(n2)NCCC3)C1)c1cccc(O[C@H]2CCOC2)c1` , please.
(A) class 1

(Q) Same lookup for `O=C(O)C[C@H](CN1CC[C@@](F)(CCc2ccc3c(n2)NCCC3)C1)c1cccc(OC[C@H]2CCCO2)c1` , please.
(A) class 0

###

- measuredOn: αvβ1 (Homo sapiens, UniProt P05556+P06756)
- Construct: host or cells: A549
- Sequence (P06756 31-889 limits assumed): as the sequence (P06756 31-889 limits assumed) above
- Sequence (P06756 891-1048 partner limits assumed): as the sequence (P06756 891-1048 partner limits assumed) above
- Sequence (P05556 21-798): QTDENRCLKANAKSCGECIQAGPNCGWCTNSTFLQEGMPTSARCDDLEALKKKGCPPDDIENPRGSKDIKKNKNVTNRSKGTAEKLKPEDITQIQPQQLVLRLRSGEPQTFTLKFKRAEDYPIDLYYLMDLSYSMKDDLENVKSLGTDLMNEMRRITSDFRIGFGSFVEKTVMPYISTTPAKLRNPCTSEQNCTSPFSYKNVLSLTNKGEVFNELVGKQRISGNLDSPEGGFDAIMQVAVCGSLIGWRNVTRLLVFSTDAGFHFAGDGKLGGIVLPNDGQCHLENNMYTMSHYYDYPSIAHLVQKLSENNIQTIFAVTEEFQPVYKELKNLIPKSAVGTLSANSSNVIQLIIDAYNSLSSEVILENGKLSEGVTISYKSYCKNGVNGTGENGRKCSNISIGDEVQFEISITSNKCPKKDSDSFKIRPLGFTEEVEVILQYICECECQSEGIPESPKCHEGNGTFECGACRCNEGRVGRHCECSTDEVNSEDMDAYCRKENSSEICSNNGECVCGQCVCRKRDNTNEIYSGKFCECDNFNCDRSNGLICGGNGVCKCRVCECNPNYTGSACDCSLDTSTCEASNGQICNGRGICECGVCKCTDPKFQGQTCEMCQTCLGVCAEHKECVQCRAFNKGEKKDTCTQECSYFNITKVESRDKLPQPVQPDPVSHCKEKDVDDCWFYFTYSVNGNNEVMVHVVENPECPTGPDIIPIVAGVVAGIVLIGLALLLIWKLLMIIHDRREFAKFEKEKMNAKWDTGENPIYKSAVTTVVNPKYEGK
- assayName: Cell adhesion assay, A549-αvβ1 (LAP-b1)
- Type: cell-based
- conditionInfo: A549-αvβ1 cells, ligand LAP-b1, 2 mM MgCl2
- Description: Reagents and methods utilised are as described [Ludbrook et al, Biochem. J. 2003, 369, 311 and Macdonald et al. ACS Med. Chem. Lett. 2014, 5, 1207-1212 for αvβ8 assay), with the following points of clarification. […] Adhesion is quantified by cell labelling with the fluorescent dye BCECF-AM (Life Technologies), where cell suspensions at 3×10^6 cells/mL are incubated with 0.33 uL/mL of 30 mM BCECF-AM at 37° C. for 10 minutes, then 50 μL/well are dispensed into the 96-well assay plate. […]
observable: αvβ1 pIC50 (mean affinity, cell Adhesion Assay)
Answers are plain numbers.

Solved entries:
O=C(O)CC(O)(CC(=O)O)C(=O)O.O=C(O)C[C@H](CN1CC[C@@](F)(CCc2ccc3c(n2)NCCC3)C1)c1cccc(O[C@H]2CCOC2)c1 [Example 18] = 6.4
O=C(O)CC(O)(CC(=O)O)C(=O)O.O=C(O)C[C@H](CN1CC[C@@](F)(CCc2ccc3c(n2)NCCC3)C1)c1cccc(O[C@@H]2CCOC2)c1 [Example 16] = 6.8
O=C(O)/C=C\C(=O)O.O=C(O)C[C@H](CN1CC[C@@](F)(CCc2ccc3c(n2)NCCC3)C1)c1cccc(O[C@H]2CCOC2)c1 [Example 19] = 6.6

Kindly consider the entry below.
(Q) What measured αvβ1 pIC50 (mean affinity, cell Adhesion Assay) goes with O=C(O)/C=C\C(=O)O.O=C(O)C[C@H](CN1CC[C@@](F)(CCc2ccc3c(n2)NCCC3)C1)c1cccc(O[C@@H]2CCOC2)c1 [Example 17] ?
(A) 6.9
